Target: T1, UNK ZnF1-3 (human, UniProt Q9C0B0 31-174)
T1 sequence: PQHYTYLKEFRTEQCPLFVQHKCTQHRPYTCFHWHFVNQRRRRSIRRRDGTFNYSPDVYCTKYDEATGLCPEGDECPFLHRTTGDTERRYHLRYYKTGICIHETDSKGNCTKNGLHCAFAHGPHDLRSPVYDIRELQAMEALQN
Test: nsRBNS (natural sequence RNA bind-n-seq); RBNS binding buffer (assumed for nsRBNS): 25 mM Tris pH 7.5, 150 mM KCl, 3 mM MgCl2, 0.01% Triton X-100, 500 ug/ml BSA, 20 U/ml SUPERase-In, 4 C; UNK is unkempt and MSI1 is Musashi-1; names of the RNAs are library labels; protein concentration not given here; high values mean tight binding
In all, about 24,000 sequences were measured (“enrichment r”: median about 0.99, highest 2% from about 3.7 on). This is one part of a sample in which the highest values are shown more often than they occur.
# binarize binding signal: threshold 0.9 enrichment R inclusive, high side met, low side not met

binder="chr2:153237265:153237266:-_ENSMUSG00000061411_ENSMUST00000109784|mus_mus|mus_mus_mus_hu_False|1_28 (ssRNA) RNA: GGGAGUUCUACAGUCCGACGAUCAAAAAAAAAAAAAAAAAAGUGUCCUUGUGCCCAAAGUCUCAGGUGCUUGGAGUGUGGCUAGAAACAGCUCUUUUGGAUCCCACCUCUUUCAGAAACAAAAUGUACCAACUGGUAGGCAGGCAACAGAGGAUUGAGCAUCA" category=met

Problem: Can 53358179_53360397_419_3pUTR_ENSMUSG00000033054_ENSMUST00000035850|mouse|control|control (ssRNA) RNA: GGGAGUUCUACAGUCCGACGAUCCAUCGCUGCCGCUUGAUUUCUGCAAUUCCAUUUCUCGUUCGAGCUCUCUGAUGGGCAGCAAACCCUGGAGAACUGUGCAUGCUCCUGAUCUGAGAGAGUGUGUGGUCUAGCUUCUUCCAUCAACAGAGGAUUGAGCAUCA be said to have binding signal at or above 0.9 enrichment R?
Result: not met

Problem: Can 46153067_46153187_242_5pUTR_ENSG00000159596_ENST00000372025|human|control|control (ssRNA) RNA: GGGAGUUCUACAGUCCGACGAUCGAUAAAACUGAAGACAUGUAGUAGGAGAUCUCAGGGGCCCACGCCGGCCAGUCCCUCCAAUCCUCCGGAUUCUAGGUAGUCUAGCUUCCUGGUUGCCAGCCAUUACACGGUUUAGCUUUCCAACAGAGGAUUGAGCAUCA be said to have binding signal at or above 0.9 enrichment R?
Result: met
